system: Mycoplasma pneumoniae strain M129 (ATCC 29342); assay: Time-kill curves; assay type: cell-based; design: unit not given here; conditions: 32×MIC; time 48
Parameter M. pneumoniae count in time-kill curve: see the listing below.
Lab note: jot the number down without any unit.

The examples below pair each entry with its known result.
- Molecule: "C=C[C@]1(C)C[C@@H](OC(=O)CSCCN(CC)CC)[C@]2(C)[C@H](C)CC[C@]3(CCC(=O)[C@H]32)[C@@H](C)[C@@H]1O [tiamulin, Tiamulin, reference compound]"
  Numeric value: 3.266
- Molecule: "C=CC1(C)CC(OC(=O)CSc2ccc(NC(=O)Cc3ccc([N+](=O)[O-])cc3)cc2)C2(C)C(C)CCC3(CCC(=O)C32)C(C)C1O (centres unmarked) [compound 16C]"
  Numeric value: 3.894
- Molecule: "CN(C)[C@@H]1C(O)=C(C(N)=O)C(=O)[C@@]2(O)C(O)=C3C(=O)c4c(O)cccc4[C@@](C)(O)[C@H]3C[C@@H]12 [tetracycline]"
  Numeric value: 3.571
- Molecule: "CC[C@H]1OC(=O)[C@H](C)[C@@H](O[C@H]2C[C@@](C)(OC)[C@@H](O)[C@H](C)O2)[C@H](C)[C@@H](O[C@@H]2O[C@H](C)C[C@H](N(C)C)[C@H]2O)[C@](C)(O)C[C@@H](C)C(=O)[C@H](C)[C@@H](O)[C@]1(C)O [erythromycin]"
  Numeric value: 3.619

Let me know recorded M. pneumoniae count in time-kill curve for O=C(O)c1cn(C2CC2)c2cc(N3CCNCC3)c(F)cc2c1=O [ciprofloxacin] , thanks.
3.873

All figures here come from paper PMC11695783.
